- Subject of test: Human ENaC δ, β and γ subunit (Homo sapiens, UniProt P51168+P51170+P51172)
- Construct: expressed in transfected cells; host or cells: Xenopus laevis (African clawed frog) oocytes injected with cRNA
- Sequence (P51172 1-802): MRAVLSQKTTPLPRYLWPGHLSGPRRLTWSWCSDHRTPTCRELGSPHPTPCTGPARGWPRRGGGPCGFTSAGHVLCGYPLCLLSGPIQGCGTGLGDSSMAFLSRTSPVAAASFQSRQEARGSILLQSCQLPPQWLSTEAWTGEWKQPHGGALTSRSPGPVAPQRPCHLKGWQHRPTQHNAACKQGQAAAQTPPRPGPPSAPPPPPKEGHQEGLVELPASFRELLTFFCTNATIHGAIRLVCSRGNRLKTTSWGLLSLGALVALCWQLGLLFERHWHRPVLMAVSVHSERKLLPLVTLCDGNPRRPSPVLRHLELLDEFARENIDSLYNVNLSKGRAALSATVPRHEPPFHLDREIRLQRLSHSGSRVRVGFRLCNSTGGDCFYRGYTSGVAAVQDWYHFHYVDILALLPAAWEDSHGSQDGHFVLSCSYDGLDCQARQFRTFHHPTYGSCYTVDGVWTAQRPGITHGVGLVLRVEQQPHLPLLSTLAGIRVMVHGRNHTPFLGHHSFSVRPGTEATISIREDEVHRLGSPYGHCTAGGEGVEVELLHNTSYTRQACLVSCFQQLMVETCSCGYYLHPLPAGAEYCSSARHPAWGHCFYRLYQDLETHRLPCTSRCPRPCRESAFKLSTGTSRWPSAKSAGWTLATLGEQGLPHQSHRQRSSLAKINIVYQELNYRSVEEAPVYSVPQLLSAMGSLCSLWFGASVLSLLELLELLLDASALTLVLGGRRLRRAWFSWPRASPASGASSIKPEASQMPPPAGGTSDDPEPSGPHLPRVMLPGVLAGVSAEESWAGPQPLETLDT
- Sequence (P51168 1-640): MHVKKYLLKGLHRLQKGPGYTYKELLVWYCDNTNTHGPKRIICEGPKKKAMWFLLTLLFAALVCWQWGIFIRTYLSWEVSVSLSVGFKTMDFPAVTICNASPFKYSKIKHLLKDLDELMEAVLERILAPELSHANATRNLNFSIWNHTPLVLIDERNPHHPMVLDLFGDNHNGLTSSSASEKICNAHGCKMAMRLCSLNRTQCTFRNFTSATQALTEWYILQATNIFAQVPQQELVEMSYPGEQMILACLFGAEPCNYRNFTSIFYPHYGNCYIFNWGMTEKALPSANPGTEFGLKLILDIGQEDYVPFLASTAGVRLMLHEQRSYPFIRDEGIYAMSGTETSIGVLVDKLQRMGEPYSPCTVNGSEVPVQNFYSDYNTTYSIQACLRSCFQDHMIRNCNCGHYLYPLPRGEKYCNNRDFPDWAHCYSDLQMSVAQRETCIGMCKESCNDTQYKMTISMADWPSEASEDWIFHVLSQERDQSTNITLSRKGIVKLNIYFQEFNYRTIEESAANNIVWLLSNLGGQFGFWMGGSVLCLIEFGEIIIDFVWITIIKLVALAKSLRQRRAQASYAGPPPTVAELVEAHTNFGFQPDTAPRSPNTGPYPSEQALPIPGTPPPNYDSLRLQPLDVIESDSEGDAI
- Sequence (P51170 1-649): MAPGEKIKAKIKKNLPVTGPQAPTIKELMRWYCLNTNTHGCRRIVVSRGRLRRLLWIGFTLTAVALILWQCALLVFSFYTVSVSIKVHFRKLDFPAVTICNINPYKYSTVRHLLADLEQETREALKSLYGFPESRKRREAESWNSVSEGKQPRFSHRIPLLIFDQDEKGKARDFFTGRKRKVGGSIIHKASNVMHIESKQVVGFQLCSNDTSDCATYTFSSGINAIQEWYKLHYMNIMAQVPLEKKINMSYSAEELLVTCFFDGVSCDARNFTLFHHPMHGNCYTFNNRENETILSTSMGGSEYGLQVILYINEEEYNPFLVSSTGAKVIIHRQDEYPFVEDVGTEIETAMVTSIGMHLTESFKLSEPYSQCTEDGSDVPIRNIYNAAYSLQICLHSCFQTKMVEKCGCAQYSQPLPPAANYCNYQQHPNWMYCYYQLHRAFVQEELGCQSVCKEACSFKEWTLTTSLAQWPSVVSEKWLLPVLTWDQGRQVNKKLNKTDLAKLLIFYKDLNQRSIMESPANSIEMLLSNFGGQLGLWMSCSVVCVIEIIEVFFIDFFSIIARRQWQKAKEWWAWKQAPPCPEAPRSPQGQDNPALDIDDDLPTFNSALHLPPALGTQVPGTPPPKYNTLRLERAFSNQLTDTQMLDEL
- Test method notes: Measurement of ENaC activation potency (MED) in ENaC-expressing oocyte, Two Electrode Voltage Clamp
- Type: cell-based
- Measurement setup: minimum effective dose at which current started to increase; ENaC-expressing African clawed frog oocyte; smaller MED = higher ENaC activation potency
- Protocol: ENaC activation current value, namely, the inward current in ENaC-expressing oocyte was measured as follows. According to the method described in Motonao Nakamura, Takao Shimizu: Experiment of African clawed frog oocyte, Experimental Medicine Vol. 11, No. 3, 224-232 (1993), oocyte was collected from African clawed frog, […], and the current value was measured by a Two Electrode Voltage Clamp technique. […]
Assay metric: MED (µM)

>  <Compound>
C[C@@H](NC(=S)N[C@@H](Cc1ccc(O)cc1)C(=O)O)c1cccc(O)c1

>  <Assay metric>
MED

>  <Measured>
0.3

$$$$
>  <Compound>
OC(CNC(=S)NCc1ccccc1)c1ccccc1 (stereo not shown)

>  <Assay metric>
MED

>  <Measured>
1

$$$$
>  <Compound>
O=C(O)[C@@H](NC(=S)NCCc1ccccc1)c1ccccc1

>  <Assay metric>
MED

>  <Measured>
1

$$$$

[a] COC[C@@H](NC(=S)NCCc1ccccc1)c1ccccc1
[b] C[C@@H](NC(=S)N[C@H](Cc1ccccc1)C(=O)O)c1cccc(O)c1
[c] C[C@@H](NC(=S)NCC(O)c1cc(O)ccc1O)c1cccc(O)c1 (stereo partly shown)
[d] COc1ccccc1CCNC(=S)NCc1ccccc1
Query: Order by MED, ascending. Dear reader, please state the labels in the requested order.
Reply: c, b, a, d

[I] OC[C@@H](NC(=S)NCCc1ccccc1)c1ccccc1
[II] ON(Cc1ccccc1)C(=S)NCCc1ccccc1
Query: Hi! Which is lower in terms of MED, the first one I or the second one II ? Answer = label.
Reply: I
